- System: PPARg homodimer (NR concentration 180 nM)
- Procedure Details: PBM binding z-score (relative to random genomic background probes); higher = stronger binding; sequences stand for … in GC…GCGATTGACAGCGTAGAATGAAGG
Property Measured: PBM binding z-score

> print(dat)
                  biopolymer.sequence    property.measured  value.observed
1  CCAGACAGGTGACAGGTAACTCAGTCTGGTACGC  PBM binding z-score           0.536

Then this sequence:
Memo: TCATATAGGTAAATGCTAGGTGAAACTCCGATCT , reported PBM binding z-score: 0.711

---

- Tested on: VDR homodimer (NR concentration 270 nM)
- Procedure Details: PBM binding z-score (relative to random genomic background probes); higher = stronger binding; sequences stand for … in GC…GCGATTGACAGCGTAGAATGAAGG
Property Measured: PBM binding z-score
Kindly provide the number alone.

> print(dat)
                  biopolymer.sequence  value.observed
1  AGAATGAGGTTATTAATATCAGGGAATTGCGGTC             1.2
2  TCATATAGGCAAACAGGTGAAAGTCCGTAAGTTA           0.251
3  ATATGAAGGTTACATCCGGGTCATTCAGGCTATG            2.96

Memo: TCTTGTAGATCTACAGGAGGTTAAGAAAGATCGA , reported PBM binding z-score: -0.594

Memo: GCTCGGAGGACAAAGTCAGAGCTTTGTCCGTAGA , reported PBM binding z-score: -0.348

Memo: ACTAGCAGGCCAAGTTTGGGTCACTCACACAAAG , reported PBM binding z-score: 0.348

Values from the supplement of paper PMC6555819
